# target.or.system: Cytochrome P450 2C9 (Homo sapiens)
# assay.protocol: Cytochrome P450 Family 2 Subfamily C Member 9 (CYP2C9) small molecule antagonists: luciferase reporter qHTS assay (AID 1671198); note: nearly all actives have a fitted effect of over 50% in size
# run.conditions: P450-Glo CYP2C9 enzyme assay, luciferin luminescence; series mostly up to 53 µM
Results filed as inconclusive are left out. The source made the active and inactive calls. Calls come from the whole dose curve; as a rule, active = well fitted inhibition curve with a large enough effect in the repeat runs; inconclusive = weak or mixed curves; inactive = no such curve, though single readings can be large or run the other way.
Your reply should match one of these outcome classes. TRUE = active, FALSE = inactive

compound	target.or.system	group
CC(C)=CCCC(C)CCOC=O (stereo not drawn)	Cytochrome P450 2C9 (Homo sapiens)	TRUE

API: the following record is the query input.
QUERY: For O=C1CCN(c2ccccc2)N1 , what call appears in the results of this test?
RESULT: TRUE

* * *

# assay.protocol: qHTS RealTime-Glo MT Cell Viability Assay in HEK293 cells - 16 hour (AID 1224872); note: top concentration of the series differs between compounds; nearly all actives have a fitted effect of over 50% in size
# run.conditions: RealTime-Glo luminescence; series mostly up to 76.8 µM
Records with an inconclusive call do not appear. Active and inactive are the calls of the source. Calls follow the shape of the dose curve; as a rule, active = well fitted cell-killing curve with a large enough effect in the repeat runs; inconclusive = weak or mixed curves, or effect the other way; inactive = flat fitted curve, though single readings scatter.
Result category, one only: True for active, False for inactive

compound	group
CO[C@@]1(NC(=O)CSCC#N)C(=O)N2C(C(=O)O)=C(CSc3nnnn3C)CS[C@@H]21	False
CC(C)(CO)[C@@H](O)C(=O)NCCC(=O)O	False
CCOC(=O)C1CC(=O)C(=C(O)C2CC2)C(=O)C1 (configuration not stated)	False

QUERY: Would you mind telling me which call this test gave CCc1cc(Cl)c(OC)c(C(=O)NC[C@@H]2CCCN2CC)c1O ?
RESULT: False

QUERY: Which outcome did this test record for the compound Cc1c[nH]c(=S)[nH]c1=O ?
RESULT: False

QUERY: What outcome does the record of this test show for CC(C)NCC(O)COc1ccc(CCOCC2CC2)cc1 (configuration not stated) ?
RESULT: False

QUERY: Write down the call the test reported for this compound. Item: NCCCN1CCN(CCCN)CC1
RESULT: False

QUERY: Fill in: this test's call for COc1nc(C)nc(NC(=O)NS(=O)(=O)c2ccccc2OCCCl)n1 is ___
RESULT: False

QUERY: Recorded test call requested for O=C1CCCCC1C1CCCCC1 (configuration not stated)
RESULT: False

* * *

# assay.protocol: A CellTox Green Cytotoxicity Assay to monitor cytotoxicity in HepG2 cells - 40 hour (AID 1224879); note: nearly all actives have a fitted effect of over 40% in size
# run.conditions: CellTox Green fluorescence; series mostly up to 76.8 µM
Results filed as inconclusive are left out. Calls of active or inactive are those of the source. Calls follow the shape of the dose curve; as a rule, active = well fitted activation curve with a large enough effect in the repeat runs; inconclusive = weak or mixed curves; inactive = flat fitted curve, though single readings scatter.
Entry note: the call must match one of active, inactive

Previously resolved entries follow.
molecule	group
OCCN1CCN(CCO)CC1	inactive
CCOC(=O)CS	inactive
CC1CN(c2ccccc2)NC1=O (configuration not stated)	inactive

QUERY: Answer briefly: the call reported for Cc1c[nH]c(=S)[nH]c1=O in this assay.
RESULT: inactive

QUERY: Answer briefly: the call reported for CC(C)C1=CC2=CC[C@@H]3[C@](C)(CCC[C@@]3(C)C(=O)O)[C@H]2CC1 in this assay.
RESULT: inactive

QUERY: So what was the verdict on CN1CCN(c2c(F)cc3c(=O)c(C(=O)O)cn4c3c2SCC4)CC1 in this test?
RESULT: inactive

QUERY: Given Cc1c(N)cccc1N , state the outcome it received in this test.
RESULT: inactive

QUERY: What did this assay record as the result for CC(=O)N(CC(O)CN(C(C)=O)c1c(I)c(C(=O)NCC(O)CO)c(I)c(C(=O)NCC(O)CO)c1I)c1c(I)c(C(=O)NCC(O)CO)c(I)c(C(=O)NCC(O)CO)c1I (configuration not stated) ?
RESULT: inactive

QUERY: So what was the verdict on CC(C)(C)c1ccc(OC(=O)c2ccccc2O)cc1 in this test?
RESULT: inactive

QUERY: I'd appreciate the recorded outcome for OCC(CBr)(CBr)CBr from this test.
RESULT: inactive

QUERY: Field: outcome | Entry: COC(=O)c1ccc(OC)cc1
RESULT: inactive

QUERY: Check the results log: what was the call for CCC(=O)O[C@]1(C(=O)SCF)[C@H](C)C[C@H]2[C@@H]3C[C@H](F)C4=CC(=O)C=C[C@]4(C)[C@@]3(F)[C@@H](O)C[C@@]21C ?
RESULT: inactive

QUERY: Which result was noted for this molecule in the test: O=C(O)[C@@H](O)[C@H](O)[C@H](O)[C@@H](O)C(=O)O
RESULT: inactive

QUERY: Hi, do you know how CC1=C(O)C(=O)OC1C (configuration not stated) came out in this test?
RESULT: inactive
